Target: T1, VEGF antigen as co-crystallised with the bH1-Fab H3 variants (Homo sapiens, VEGF-A residues 1-110 of …)
T1 construct: VEGF-A, human
T1 chain: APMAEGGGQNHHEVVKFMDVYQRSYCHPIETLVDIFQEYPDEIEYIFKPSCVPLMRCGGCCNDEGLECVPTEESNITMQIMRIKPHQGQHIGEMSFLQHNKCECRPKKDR
Experiment: crystal structure; co-crystallization of bH1-Fab H3 variants with the VEGF antigen and X-ray diffraction; methods in Shi et al. (in preparation)
Details: both partners purified
measurement-kind: binding result

INSERT INTO measurements (binder, result) VALUES
  ('bH1 Fab H3 variant 12_0327 (Fab, V domains shown, also in PDB 7KF2; also called design 12_0327; source: CHO-3E7, co-transfected, purified from supernatant (HisTrap IMAC, SEC Superdex-200)) VH: EVQLVESGGGLVQPGGSLRLSCAASGFNIKDTYIHWVRQAPGKGLEWVARIYPTNGYTRYADSVKGRFTISADTSKNTAYLQMNSLRAEDTAVYYCARGRKYSSSFDYWGQGTLVTVSS VL: DIQMTQSPSSLSASVGDRVTITCRASQDIPRSISGYVAWYQQKPGKAPKLLIYWGSYLYSGVPSRFSGSGSGTDFTLTISSLQPEDFATYYCQQHYTTPPTFGQGTKVEIK', 'binds'),
  ('bH1 Fab H3 variant 16_0325 (Fab, V domains shown, also in PDB 7KEZ; also called design 16_0325; source: CHO-3E7, co-transfected, purified from supernatant (HisTrap IMAC, SEC Superdex-200)) VH: EVQLVESGGGLVQPGGSLRLSCAASGFNIKDTYIHWVRQAPGKGLEWVARIYPTNGYTRYADSVKGRFTISADTSKNTAYLQMNSLRAEDTAVYYCARGGAVAGTGVYYFDYWGQGTLVTVSS VL: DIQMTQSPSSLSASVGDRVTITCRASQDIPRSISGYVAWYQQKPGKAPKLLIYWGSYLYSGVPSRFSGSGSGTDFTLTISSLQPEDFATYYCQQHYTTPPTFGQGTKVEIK', 'binds'),
  ('bH1 Fab H3 variant 13_0346 (Fab, V domains shown, also in PDB 7KF0; also called design 13_0346; source: CHO-3E7, co-transfected, purified from supernatant (HisTrap IMAC, SEC Superdex-200)) VH: EVQLVESGGGLVQPGGSLRLSCAASGFNIKDTYIHWVRQAPGKGLEWVARIYPTNGYTRYADSVKGRFTISADTSKNTAYLQMNSLRAEDTAVYYCARGGSFYYYYMDVWGQGTLVTVSS VL: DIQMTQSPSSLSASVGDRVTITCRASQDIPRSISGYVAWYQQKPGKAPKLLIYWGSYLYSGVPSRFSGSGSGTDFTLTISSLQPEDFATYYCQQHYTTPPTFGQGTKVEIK', 'binds'),
  ('bH1 Fab H3 variant 14_0130 (Fab, V domains shown, also in PDB 7KF1; also called design 14_0130; source: CHO-3E7, co-transfected, purified from supernatant (HisTrap IMAC, SEC Superdex-200)) VH: EVQLVESGGGLVQPGGSLRLSCAASGFNIKDTYIHWVRQAPGKGLEWVARIYPTNGYTRYADSVKGRFTISADTSKNTAYLQMNSLRAEDTAVYYCAKLGIGYYYYGMDVWGQGTLVTVSS VL: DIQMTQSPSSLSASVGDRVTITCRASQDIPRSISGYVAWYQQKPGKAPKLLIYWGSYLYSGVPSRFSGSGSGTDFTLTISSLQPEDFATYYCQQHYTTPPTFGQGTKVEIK', 'binds');
